Every entry's value here was drawn from the supplement of paper PMC10567573.

protein stability index overview
B1: ADD1 (parent)
chain: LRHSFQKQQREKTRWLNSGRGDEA

variants of: B1; assay: protein stability index of a GFP-peptide fusion (GPS, HEK-293T) (PSI 1-6); higher = more stable; settings: c terminus: a fixed tail appended;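 also: lentivirally expressed fusions sorted by FACS into six bins by GFP to DsRed ratio, PSI derived from sequencing read proportions per bin multiplied by bin number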
Hey, just send me the number, nothing else.

Answered cases to consult:
LRHSFQKQQREKTRWLNSGRGDHA | 3.23
LRHSFQKQQREKTRWLNSGRGDES | 3.9

Entry `LRHSFQKQQREKTRWLNSGRGDEG` : reported protein stability index = ? 3.96

// protein stability index lookup, key: `LRHSFQKQQREKTRWLNSGRMDEA` 3.4

Entry under review: `LRHSFQKQQREKTRWLNSGRGDCA` . Reported protein stability index? 3.54

Quick one: protein stability index of `LRHSFQPQQREKTRWLNSGRGDEA` ? 3.86

Endpoint output: protein stability index of `LRHSVQKQQREKTRWLNSGRGDEA` . Value? 4.17

Recorded protein stability index of `LRHSFQFQQREKTRWLNSGRGDEA` , please. 3.63
